Quantity Measured: melting point

[
  {
    "Compound": "COc1cccc(C2CCC(=O)N2)c1 (stereo unspecified)",
    "Obs Value": "84 to 85 °C"
  },
  {
    "Compound": "Nc1nc2c(sc(=O)n2CCCCO)c(=O)[nH]1",
    "Obs Value": "258 to 260 °C"
  },
  {
    "Compound": "CCCc1nc(C=NNC(=O)OCC)c(C)[nH]1",
    "Obs Value": "184 to 188 °C"
  }
]

Exam item: GET /values?readout=melting point&item= CCCCCCC(=O)N(CCCCn1ccnc1)C1=Nc2cccc3cccc1c23
Marked response: 82 to 84 °C

Exam item: // same read-out, input: CNC(=O)Cn1c(Cl)ccc1Cl
Marked response: 193 to 194 °C

Exam item: // same read-out, input: CCCCC[C@H]1CC[C@H](c2ccc(-c3nc(N)nc(N)n3)cc2)CC1
Marked response: > 250 °C

Exam item: // same read-out, input: O=[N+]([O-])c1cc(Cl)c(Oc2cc(Cl)c(Cl)cc2Cl)cc1Oc1ccccc1
Marked response: 84 °C

---

melting point for assorted compounds

[
  {
    "Compound": "CCOc1cccc2cc(C(=O)c3ccc(Cl)cc3)oc12",
    "melting point": "108 to 110 °C"
  }
]

Exam item: GET /values?readout=melting point&item= CCOC(=O)c1c2n(c3c(F)c(N4CCC(N(C)C)C4)c(F)cc3c1=O)C(C)S2 (stereo unspecified)
Marked response: 165 to 168 °C

Exam item: // same read-out, input: CC(=O)Nc1ccc(C=Nc2cc(Cl)c(N=CN(C)C)c(Cl)c2)cc1
Marked response: 171 to 173 °C

Exam item: // same read-out, input: Nn1cc(F)c(=O)[nH]c1=O
Marked response: 196 to 199 °C

Exam item: // same read-out, input: O=S(=O)(c1ccccc1)n1ncc2c(OCCCl)cccc21
Marked response: 102 to 104 °C

Exam item: // same read-out, input: CCOCc1nc2c(N)nc3ccccc3c2n1CCNC(=O)OC(C)(C)C
Marked response: 201 to 202 °C

Exam item: // same read-out, input: O=c1[nH]cc(-c2ccccc2)c2ncccc12
Marked response: 260 to 263 °C

Exam item: // same read-out, input: O=C(c1ccoc1)c1ccc2[nH]c(=O)cc(-c3cccc(Cl)c3)c2c1
Marked response: > 250 °C

Exam item: // same read-out, input: COc1ccc2cnc(N)nc2c1C(C)C
Marked response: 112 to 113 °C

Exam item: // same read-out, input: COc1cc(Cc2cnc(NC(C)=Nc3ccccc3)nc2N)cc(OC)c1OC
Marked response: 189 °C

---

Quantity Measured: melting point

Example cases with answers are listed next.
[
  {
    "Molecule": "Fc1c(F)c(-c2c(F)c(F)c(Oc3cccc4ccccc34)c(F)c2F)c(F)c(F)c1Oc1cccc2ccccc12",
    "Quantity Measured": "melting point",
    "Obs Value": "189 to 191 °C"
  },
  {
    "Molecule": "CC(C)(C)c1nc2cc(N3CCCC3)c(N)cc2s1",
    "Quantity Measured": "melting point",
    "Obs Value": "130 to 132 °C"
  },
  {
    "Molecule": "Cc1cnc(OCC2CN(C(C)(C)C)C(c3ccccc3)O2)c2cc(Cl)ccc12 (stereo not given)",
    "Quantity Measured": "melting point",
    "Obs Value": "90 to 92 °C"
  },
  {
    "Molecule": "CCCCCCCCCCCC(=O)NC(=O)N1CC1C#N (stereo not given)",
    "Quantity Measured": "melting point",
    "Obs Value": "140 to 143 °C"
  }
]

Consider the additional molecule presented here.
Exam item: GET /values?readout=melting point&item= CNc1ccc2sc3ccccc3c(=O)c2c1
Marked response: 172 to 175 °C

---

melting point for assorted molecules

[
  {
    "Molecule": "COCc1nc2c(NC(=O)C(C)(C)C)cccn2c1C",
    "Obs Value": "104 °C"
  },
  {
    "Molecule": "Cc1ccccc1-c1cc(F)c2c(c1)CC(CN)O2 (stereo not given)",
    "Obs Value": "> 250 °C"
  },
  {
    "Molecule": "COc1cc(C=C(C#N)C(=O)NCCC(C)NC(=O)C(C#N)=Cc2cc(O)c(O)c(OC)c2)cc(O)c1O (stereo not given)",
    "Obs Value": "> 300 °C"
  },
  {
    "Molecule": "COc1ccccc(N(C)S(=O)(=O)c2ccc(C)cc2)c1=O",
    "Obs Value": "94.5 °C"
  },
  {
    "Molecule": "O=C(Nc1ccccc1Cl)N1CCc2cc(S(=O)(=O)N3CCN(c4cccc(Cl)c4)CC3)ccc21",
    "Obs Value": "205 to 206 °C"
  },
  {
    "Molecule": "O=C1Cc2cccc(C(=O)c3ccccc3F)c2N1",
    "Obs Value": "209 to 210 °C"
  },
  {
    "Molecule": "CCCOc1ncc(NC(=O)CC(=O)O)cc1-c1nc2c(CCC)nn(C)c2c(=O)[nH]1",
    "Obs Value": "261 to 262 °C"
  },
  {
    "Molecule": "CC(C)n1nc(OS(=O)(=O)C(F)(F)F)ccc1=O",
    "Obs Value": "45 to 46 °C"
  },
  {
    "Molecule": "CC(C)OCC1(C(F)(F)F)c2cc(C#N)ccc2Nc2ncc(C#N)cc21 (stereo not given)",
    "Obs Value": "226 to 227 °C"
  },
  {
    "Molecule": "O=C(OCC1CCCC1)c1ncn2c1[C@@H]1CCCN1C(=O)c1c(Cl)cccc1-2",
    "Obs Value": "112 to 114 °C"
  }
]

Exam item: GET /values?readout=melting point&item= COc1ccc2ncnc(N3CCc4ccc(Cl)cc43)c2c1
Marked response: 243 °C

Exam item: // same read-out, input: COc1cc(Nc2cc(-c3nnc(C)o3)ccn2)cc(C(F)(F)F)c1
Marked response: 241 to 242 °C

---

melting point for assorted compounds

Example cases with answers are listed next.
[
  {
    "Compound": "COc1cc2c(c(OC(C)=O)c1)C1CCC3(C)C(OC)CCC3C1CC2 (stereo not given)",
    "melting point": "81 to 83 °C"
  },
  {
    "Compound": "Cc1ccc(N2C(=O)C(O)=C(C(=O)c3ccc(C(C)C)cc3)C2c2ccc(OC(C)(C)C)cc2)nn1 (stereo not given)",
    "melting point": "276 to 277 °C"
  },
  {
    "Compound": "CC12C=CCC1C1CCC3=C(CCC(=O)C3)C1CC2 (stereo not given)",
    "melting point": "112 to 116 °C"
  },
  {
    "Compound": "CC1COc2c(ccc(F)c2F)N1 (stereo not given)",
    "melting point": "51 °C"
  },
  {
    "Compound": "CC(=O)SC[C@H]1CCCCCC[C@H](C(=O)N2C[C@H](O)C[C@H]2C(=O)OCc2ccccc2)NC1=O",
    "melting point": "145 °C"
  }
]

Exam item: GET /values?readout=melting point&item= CCCCC1CCc2cc(C(=O)C(C)C)cc3c(CCN4CCN(c5cc(C)ccn5)CC4)c(C)n1c23 (stereo not given)
Marked response: 150 °C

Exam item: // same read-out, input: CC(=O)c1ccc2c(c1)C(C(=O)Nc1cccc(C(=O)Nc3ccccc3)c1)C(=O)N2C (stereo not given)
Marked response: 178 to 179 °C

Exam item: // same read-out, input: CCCCCc1ccc(OC(=O)c2ccc(O)cc2Cl)cc1
Marked response: 149 to 151 °C

Exam item: // same read-out, input: CCCNC(=O)C(C)c1nc(CC)no1 (stereo not given)
Marked response: 52 to 53 °C

Exam item: // same read-out, input: CC(=O)OCCC1CCn2c(c(C3=C(c4cn(C)c5ccccc45)C(=O)OC3=O)c3ccccc32)C1 (stereo not given)
Marked response: 159 to 161 °C

---

melting point for assorted compounds

Example cases with answers are listed next.
[
  {
    "Compound": "COc1ccc2c(c1)c(SC)c(C(=O)O)n2C",
    "melting point": "165 °C"
  },
  {
    "Compound": "CC(C)[C@H](NC(=O)OC(C)(C)C)C(=O)NCCCN1CCN(CCCNc2cccc3c2C(=O)c2ccccc2C3=O)CC1",
    "melting point": "108 °C"
  },
  {
    "Compound": "C#Cc1cccc(Nc2ncnc3[nH]cc(-c4cccc([N+](=O)[O-])c4)c23)c1",
    "melting point": "189 to 190 °C"
  }
]

Exam item: GET /values?readout=melting point&item= CS(=O)(=O)c1ccc(C(CC2CCCC2)C(=O)O)cc1S(C)(=O)=O (stereo not given)
Marked response: 64 to 68 °C

Exam item: // same read-out, input: COc1ccc(CNS(=O)(=O)Cc2ccc3[nH]cc(CCN(C)C)c3c2)cc1
Marked response: 200 to 201 °C

Exam item: // same read-out, input: COc1ccc(S(=O)(=O)C2(CCCC#Cc3ccc(Cl)cc3)SC(=O)NC2=O)cc1 (stereo not given)
Marked response: 172 to 174 °C

Exam item: // same read-out, input: O=Cc1cc([N+](=O)[O-])ccc1C1SCCCS1
Marked response: 99 to 101 °C

Exam item: // same read-out, input: O=C(O)c1ccc(Oc2c(-c3ccc(O)cc3)c(C(F)(F)F)cc3ccccc23)cc1
Marked response: 244 to 245 °C

Exam item: // same read-out, input: CS(=O)(=O)Oc1ccccc1S(=O)(=O)Cl
Marked response: 94 to 95 °C

Exam item: // same read-out, input: CCc1cccc(C)c1CNc1cc(C(=O)N(C)C)cc2[nH]c(C)nc12
Marked response: 228 to 230 °C
